# System: HS 578T breast
# ASSAY_REMARKS: NCI-60 one-dose screen, 48 h (100 = growth as untreated, 0 = no growth, -100 = all killed)
# CONDITION_DETAILS: 10 µM
This is part of a sample that, as a whole, favours compounds with a hit. Of some 83,000 tested, about 20% had one in any assay.
Provide the reported growth of each item.
Value expressed in %; do not type the unit.

State the measured growth (HS 578T breast) of O=C(Nc1ccc(Br)cc1)Nc1ccccc1Cl
99.7

State the measured growth (HS 578T breast) of C=C(C)c1ccc(/C=N/NC(N)=S)cc1
65.6

State the measured growth (HS 578T breast) of CCCCNCCC(O)c1cc2ccc(C(F)(F)F)cc2c2cc(C(F)(F)F)ccc12 (stereo not given)
-55.2

State the measured growth (HS 578T breast) of COc1cc(C2=NOC(c3cc(OC)c(OC)c(OC)c3)C2)ccc1OCCCCOc1cc2c(cc1OC)C(=O)N1CCC[C@H]1C=N2 (stereo not given in full)
-10.4

State the measured growth (HS 578T breast) of COc1ccccc1NC(=O)OCC12COCN1COC2
110

State the measured growth (HS 578T breast) of NC(=Nc1ccccc1)SCCCSC(N)=Nc1ccccc1
89

State the measured growth (HS 578T breast) of COc1ccc(C2=NN(C=O)C(c3ccc(OS(=O)(=O)c4ccc(C)cc4)c(OC)c3)C2)cc1 (stereo not given)
60.1

State the measured growth (HS 578T breast) of O=C(Nc1cccc(Cl)c1)Nc1cc(C(F)(F)F)ccc1Cl
55.9

State the measured growth (HS 578T breast) of CCN(CC)CCCC(C)Nc1cnc(C(=O)Nc2ccc(Cl)c3cccnc23)cn1 (stereo not given)
51.4

State the measured growth (HS 578T breast) of COc1ccc(-c2nc(-c3cc(OC)cc(OC)c3)[nH]c2-c2ccc(OC)cc2)cc1
81.5
